System name: Estrogen receptor (Homo sapiens, UniProt P03372)
Sequence (P03372 whole entry): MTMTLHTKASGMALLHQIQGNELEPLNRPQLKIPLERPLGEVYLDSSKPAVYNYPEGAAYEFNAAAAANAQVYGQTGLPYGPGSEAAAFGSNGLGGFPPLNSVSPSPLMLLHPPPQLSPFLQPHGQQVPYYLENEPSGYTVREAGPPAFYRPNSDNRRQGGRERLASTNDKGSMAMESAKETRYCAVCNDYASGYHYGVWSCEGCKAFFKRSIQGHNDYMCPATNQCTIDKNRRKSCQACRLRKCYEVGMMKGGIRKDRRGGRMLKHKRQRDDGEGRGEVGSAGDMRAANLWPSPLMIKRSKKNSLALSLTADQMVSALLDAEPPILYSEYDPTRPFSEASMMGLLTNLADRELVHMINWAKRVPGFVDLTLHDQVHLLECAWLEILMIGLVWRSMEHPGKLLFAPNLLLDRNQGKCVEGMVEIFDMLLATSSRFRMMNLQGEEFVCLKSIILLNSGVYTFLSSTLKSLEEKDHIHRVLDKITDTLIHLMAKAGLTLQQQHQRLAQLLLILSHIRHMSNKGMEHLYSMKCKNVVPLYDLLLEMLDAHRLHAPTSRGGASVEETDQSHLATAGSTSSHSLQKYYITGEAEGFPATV
Measure: pIC50
Please express pIC50 as -log10 of the molar concentration.

input: Observed pIC50 on Estrogen receptor (Homo sapiens, UniProt P03372) for O=C(CCc1ccc(O)cc1)c1c(O)cc(O)cc1O , please.
output: 6.52

----------
# IC50 per record follows
System name: Solute carrier family 2, facilitated glucose transporter member 1 (Homo sapiens)
Sequence (P11166 whole entry): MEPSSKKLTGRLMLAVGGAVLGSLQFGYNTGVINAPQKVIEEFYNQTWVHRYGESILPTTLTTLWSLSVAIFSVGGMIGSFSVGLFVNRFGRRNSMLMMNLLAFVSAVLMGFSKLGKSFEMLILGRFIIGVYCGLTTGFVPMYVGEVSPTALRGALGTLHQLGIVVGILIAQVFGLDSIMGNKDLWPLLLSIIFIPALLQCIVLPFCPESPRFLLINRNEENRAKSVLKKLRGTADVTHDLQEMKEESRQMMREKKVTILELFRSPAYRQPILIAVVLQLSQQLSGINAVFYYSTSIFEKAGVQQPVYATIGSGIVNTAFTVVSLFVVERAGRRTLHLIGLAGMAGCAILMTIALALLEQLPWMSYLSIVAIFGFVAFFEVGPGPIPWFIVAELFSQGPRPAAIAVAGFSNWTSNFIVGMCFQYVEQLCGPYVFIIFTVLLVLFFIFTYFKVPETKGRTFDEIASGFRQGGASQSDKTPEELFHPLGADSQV
Test summary: Inhibition of GLUT1 in human H1299 cells assessed as inhibition of 2-deoxy-D-[3H]-glucose uptake incubated for 15 mins prior to 2-deoxy-D-[3H]-glucose addition measured after 30 mins by liquid scintillation counting analysis
Put down the number, then write its unit next to it.

Completed entries (count: 3):
[
  {
    "Smiles record": "O=C(Oc1cccc(F)c1OC(=O)c1cccc(O)c1)c1cccc(O)c1",
    "IC50": "10.9 µM"
  },
  {
    "Smiles record": "COc1ccc(-c2ccc(O)c(/C=N/O)c2)cc1",
    "IC50": "23.4 µM"
  },
  {
    "Smiles record": "COc1ccc(-c2ccc(/C(C)=N/O)c(O)c2Cl)cc1F",
    "IC50": "15.5 µM"
  }
]

input: Reported IC50 for O=C(CCc1ccc(O)cc1)c1c(O)cc(O)cc1O : what is it?
output: 21.4 µM

input: Same lookup for C/C(=N\O)c1ccc(-c2ccc(O)cc2)c(Cl)c1O , please.
output: 10.6 µM

input: Same lookup for COc1ccc(-c2ccc(O)c(/C=N/O)c2)cc1F , please.
output: 8.5 µM
